tested on: TTR; assay: TTR editing in primary cyno hepatocytes electroporated with Spy Cas9 protein and sgRNAs (Tables 14, 15); type: cell-based, cynomolgus monkey; settings: Table 14; primary cyno hepatocytes electroporated with Spy Cas9 protein (RNP) and sgRNAs
Strand notation (5' to 3'): a small letter for the sugar, then the base; units joined by * are phosphorothioate-linked, units joined directly phosphodiester-linked; [ ] holds rarer units or linkages, { } end groups; capitals alone tell only the bases. m = 2'-O-methyl; r = 2'-OH (RNA)
Would you kindly list Avg % Deletion for each of these molecules?
Numbers only, in %.

Example molecules with recorded Avg % Deletion:
MOLECULE	Avg % Deletion / %
G000489: TTR sgRNA modified sequence, Human, SEQ ID No. 96; guide sequence of CR003344 (nucleic acid) guide: mU*mU*mU*rGrArCrCrArUrCrArGrArGrGrArCrArCrUrGrUrUrUrUrArGrAmGmCmUmAmGmAmAmAmUmAmGmCrArArGrUrUrArArArArUrArArGrGrCrUrArGrUrCrCrGrUrUrArUrCrAmAmCmUmUmGmAmAmAmAmAmGmUmGmGmCmAmCmCmGmAmGmUmCmGmGmUmGmCmU*mU*mU*mU	14.17
G000488: TTR sgRNA modified sequence, Human, SEQ ID No. 95; guide sequence of CR003346 (nucleic acid) guide: mA*mA*mA*rGrUrUrCrUrArGrArUrGrCrUrGrUrCrCrGrGrUrUrUrUrArGrAmGmCmUmAmGmAmAmAmUmAmGmCrArArGrUrUrArArArArUrArArGrGrCrUrArGrUrCrCrGrUrUrArUrCrAmAmCmUmUmGmAmAmAmAmAmGmUmGmGmCmAmCmCmGmAmGmUmCmGmGmUmGmCmU*mU*mU*mU	4.27
G000480: TTR sgRNA modified sequence, Human, SEQ ID No. 87; guide sequence of CR003353 (nucleic acid) guide: mA*mA*mA*rGrGrCrUrGrCrUrGrArUrGrArCrArCrCrUrGrUrUrUrUrArGrAmGmCmUmAmGmAmAmAmUmAmGmCrArArGrUrUrArArArArUrArArGrGrCrUrArGrUrCrCrGrUrUrArUrCrAmAmCmUmUmGmAmAmAmAmAmGmUmGmGmCmAmCmCmGmAmGmUmCmGmGmUmGmCmU*mU*mU*mU	0.37
G000498: TTR sgRNA modified sequence, Human, SEQ ID No. 105; guide sequence of CR003359 (nucleic acid) guide: mA*mG*mU*rGrArGrUrCrUrGrGrArGrArGrCrUrGrCrArGrUrUrUrUrArGrAmGmCmUmAmGmAmAmAmUmAmGmCrArArGrUrUrArArArArUrArArGrGrCrUrArGrUrCrCrGrUrUrArUrCrAmAmCmUmUmGmAmAmAmAmAmGmUmGmGmCmAmCmCmGmAmGmUmCmGmGmUmGmCmU*mU*mU*mU	22.87

Continue with the next molecule.
Prompt: // lookup Avg % Deletion for G000493: TTR sgRNA modified sequence, Human, SEQ ID No. 100; guide sequence of CR003368 (nucleic acid) guide: mA*mA*mG*rUrGrCrCrUrUrCrCrArGrUrArArGrArUrUrGrUrUrUrUrArGrAmGmCmUmAmGmAmAmAmUmAmGmCrArArGrUrUrArArArArUrArArGrGrCrUrArGrUrCrCrGrUrUrArUrCrAmAmCmUmUmGmAmAmAmAmAmGmUmGmGmCmAmCmCmGmAmGmUmCmGmGmUmGmCmU*mU*mU*mU
Completion: 2.10
